- TARGET_ENTITY: T1, polypeptide GC3pep (human)
- T1 construct: also called membrane proximal polypeptide GC3pep
- T1 peptide: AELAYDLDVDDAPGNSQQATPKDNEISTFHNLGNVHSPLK
- ASSAY_TEXT: ELISA, GC3pep coated, antibody 1 nM;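 note: bound antibody detected with an HRP-conjugated secondary antibody and TMB substrate, reaction stopped with HCl, after 2 h binding at 37 °C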
Attribute: OD450 nm
Give just the numeric value; OD450 nm need not be written.

BINDER | READOUT_TYPE | RECORDED_RESULT
F3.81.19 (antibody, human IgG1, kappa, V domains shown, human-murine chimeric antibody) VH: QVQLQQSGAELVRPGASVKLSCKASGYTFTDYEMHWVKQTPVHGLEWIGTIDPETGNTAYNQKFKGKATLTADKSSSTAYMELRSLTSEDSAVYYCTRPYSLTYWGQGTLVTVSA VL: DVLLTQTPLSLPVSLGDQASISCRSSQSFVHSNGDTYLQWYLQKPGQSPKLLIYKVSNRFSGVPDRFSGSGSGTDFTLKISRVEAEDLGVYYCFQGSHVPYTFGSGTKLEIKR | OD450 nm | 1.21

Qu. State the recorded OD450 nm for this entry: F1.115.8 (antibody, human IgG1, kappa, V domains shown, human-murine chimeric antibody) VH: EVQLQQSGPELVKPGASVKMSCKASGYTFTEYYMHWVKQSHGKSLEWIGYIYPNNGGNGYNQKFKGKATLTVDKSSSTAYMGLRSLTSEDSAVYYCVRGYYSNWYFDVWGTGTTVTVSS VL: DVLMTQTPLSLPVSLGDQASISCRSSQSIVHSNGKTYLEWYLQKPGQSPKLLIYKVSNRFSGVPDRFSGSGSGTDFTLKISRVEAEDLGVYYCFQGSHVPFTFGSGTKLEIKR
Ans. 0.08

Qu. Try the binder F2.39.2 (antibody, human IgG1, kappa, V domains shown, human-murine chimeric antibody) VH: QVQLQQSGAELVRPGASVKVSCKASGYTFTDYEMHWMKQTPVHGLEWIGANEPETGRSAYDQKFKGKATLTADKSSSTAYMELRSLTSEDSAVYYCTRFYSFAYWGQGTLVTVSA VL: DVVMTQTPLSLPVSLGDQASISCRSSQGLVHNNGNTYLHWYLQKPGQSPKLLIYKVSNRFSGVPDRFSGSGSGTDFTLKISRVEAEDLGVYFCSQNTHVPPTFGGGTKLEIKR
Ans. 2.21

Where do the numbers come from? From patent US20260116991A1.
